- Experimental target: Solute carrier family 2, facilitated glucose transporter member 1 (Homo sapiens) (UniProt P11166)
- Sequence (P11166 whole entry): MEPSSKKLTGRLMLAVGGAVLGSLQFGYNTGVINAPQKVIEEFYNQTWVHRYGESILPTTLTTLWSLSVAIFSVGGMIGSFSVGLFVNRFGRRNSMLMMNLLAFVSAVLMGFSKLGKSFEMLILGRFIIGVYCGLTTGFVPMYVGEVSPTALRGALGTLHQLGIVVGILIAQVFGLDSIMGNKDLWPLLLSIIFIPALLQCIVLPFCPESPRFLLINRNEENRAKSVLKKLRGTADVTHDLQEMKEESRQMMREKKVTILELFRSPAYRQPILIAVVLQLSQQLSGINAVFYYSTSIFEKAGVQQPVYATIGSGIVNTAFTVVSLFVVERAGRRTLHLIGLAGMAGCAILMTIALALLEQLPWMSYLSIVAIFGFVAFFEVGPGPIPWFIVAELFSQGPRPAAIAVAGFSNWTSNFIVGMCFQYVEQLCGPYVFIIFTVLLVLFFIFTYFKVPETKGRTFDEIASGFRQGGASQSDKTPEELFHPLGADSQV
- Procedure details: ST_JUDE_LEISH: Cytotoxicity at 2uM final concentration against transgenic Leishmania Mexicana promastigotes LmGLUT1 that are glucose transport deficient and complemented with the human glucose transporter GLUT1. Activity is measured by DNA content using SYBR green in vitro
- Format: functional
We begin with a simple list: items and their reported inhibition.
Measurement name: inhibition (%)

                                   compound  readout_units  recorded_value
0  O=C(NCc1ccccc1[S+]([O-])c1ccccc1CO)C(F)(F)F (centres undefined)              %           -1.33
1  COc1ccc(NC(=O)[C@H](C)Nc2cc(C)nc(NCC3CCCCC3)n2)cc1              %            5.31
2  O=C(/C=C/c1ccc(Cl)c(Cl)c1)NC1CCC(CN2CCC(c3nc4cccnc4[nH]3)CC2)CC1 (centres undefined)              %            1.77
3  CCCc1c(C(=O)Nc2ccc3c(c2)CCN(C2CCC2)CC3)cnn1-c1ccc(Cl)cc1              %            5.65
4  O=C(Nc1cccc(-c2cccc(-c3nc4cc(C(F)(F)F)ccc4[nH]3)c2)c1)c1cccnc1              %            0.56
5  O=C(Nc1cccc(CN2CCCN(Cc3cccc(Cl)c3)CC2)c1)c1ccc(Cl)c(Cl)c1              %            1.69
6  COc1ccc(C(=O)CCC(=O)N(Cc2ccc(-c3ccc(CNCCc4ccc(S(C)(=O)=O)cc4)cn3)cc2)C2CC3CCC2C3)cc1F (centres undefined)              %            12.7
7  CC(C)C1CCc2nc(N)nc(N)c2C1 (centres undefined)              %            2.52
8  Cc1cccc2nc(-c3ccc(-c4cccc(CN5CC(C)OC(C)C5)c4)s3)[nH]c12 (centres undefined)              %            7.69

====

We begin with a simple list: items and their reported inhibition.
- Experimental target: Hexose transporter 1 (Plasmodium falciparum) (UniProt O97467)
- Procedure details: ST_JUDE_LEISH: Cytotoxicity at 2uM final concentration against transgenic Leishmania Mexicana promastigotes LmPfHT that are glucose transport deficient and complemented with the Plasmodium falciparum hexose transporter. Activity is measured by DNA content using SYBR green in vitro
- Type: functional
Measurement name: inhibition (%)

>>> print(df.to_string())
                                    compound  recorded_value
 0  Cc1ccc(C(=O)Nc2cc(C(F)(F)F)cc(C(F)(F)F)c2)cc1[N+](=O)[O-]            12.4
 1     COc1cccc(C=NNc2cc(C)nc3c(OC)cccc23)c1            1.32
 2  CC(C)(C)C(C)(C)Cc1ccc(O)c(CN2CCN(c3ccccc3)CC2)c1           -0.41
 3  COc1ccc(-c2cc(C(=O)Nc3ccc(CCCN(C)Cc4ccc(OC)c(OC)c4)cc3)c3ccccc3n2)cc1            2.41
 4  O=C(NCC1CCC(C(=O)NCCc2ccc(Cl)c(Cl)c2)CC1)c1ccc(O)c(-c2ccc(Cl)c(Cl)c2)c1 (stereo not drawn)             0.8
 5  Cn1cncc1CNCc1ccc(-c2cccc(-c3nc4ccccc4[nH]3)c2)cc1           -1.22
 6  CC(C)COc1ccc(Cl)cc1Cc1ccc(-c2nc3cnc4ccccc4c3[nH]2)o1            2.77
 7  CN1CCC(Oc2ccc(CN3CC[C@H](NC(=O)c4ccc(Cl)c(Cl)c4)C3)cc2Cl)C1 (stereo partly drawn)              16
 8  CCC(C)CC(=O)Nc1ccc(OC)c(S(=O)(=O)N[C@@H]2CCN(C#N)C2)c1 (stereo partly drawn)            -0.4
 9  COc1ccc2nccc([C@@H](O)CN3CCC(NCCOc4ccc(F)cc4Cl)CC3)c2c1            11.6
10  CC(=O)N(C)c1cccc(C(=O)Nc2cccc(-c3cccc(-c4nc5cccc(C)c5[nH]4)c3)c2)c1            3.96
11  Cc1cccc2nc(-c3cccc(-c4ccc(NC(=O)Cc5c[nH]cn5)cc4)c3)[nH]c12           -0.73
12  O=C(NCCc1ccccc1)N(Cc1ccccc1-c1cccc(CNCCc2ccccc2)c1)C1CCN(Cc2ccccc2)CC1            1.06
13  Cc1cc(=O)c2cc(-c3ccc(OC(F)(F)F)cc3)ccc2[nH]1            0.49
14  C=C[C@]1(C)C[C@@H](OC(=O)c2n[nH]c3ccccc3c2=O)[C@]2(C)[C@H](C)CC[C@]3(CCC(=O)[C@H]32)[C@@H](C)[C@@H]1O            0.28
15  N#Cc1ccc2c(c1)CCN(CCC1CCC(NC(=O)/C=C/c3ccc(F)c4ccccc34)CC1)CC2 (stereo not drawn)            20.9
16  CN(N=Cc1ccccc1)C(=N)NCCCC#Cc1cccc(CN2CCCC2)c1            6.82
17  CC(=O)Nc1cccc(CN(Cc2ccc(-c3ccc(CNCc4cccnc4)cn3)cc2)C(=O)Cc2cccnc2)c1            10.7
